Examples of molecules with documented TGI follow.
tested on: CCRF-CEM leukemia; test: NCI tumour cell line growth inhibition, 48 h

Some molecules with recorded TGI:
[[record]]
molecule = "O=C(Nc1ccc(C2=NCCN2)cc1)c1cncc(C(=O)Nc2ccc(C3=NCCN3)cc2)c1"
assay_target = "CCRF-CEM leukemia"
recorded_result = "> 100 µM"

[[record]]
molecule = "CO[C@H](C(=O)[C@@H](O)[C@@H](C)O)[C@@H]1Cc2cc3cc(O[C@H]4C[C@@H](O[C@H]5C[C@@H](O)[C@H](O)C(C)O5)[C@H](O)C(C)O4)c(C)c(O)c3c(O)c2C(=O)[C@H]1O[C@H]1C[C@@H](O[C@H]2C[C@@H](O[C@H]3C[C@](C)(O)C(=O)C(C)O3)[C@@H](O)C(C)O2)[C@H](O)C(C)O1 (stereo partly drawn)"
assay_target = "CCRF-CEM leukemia"
recorded_result = "> 33.2 µM"


*Q* Consider the molecule shown here: `COC(=O)[C@H]1CO[C@@H](C(C)(C)C)N1C(=O)N1C=CC(=O)C[C@@H]1C` What is its recorded TGI?
*A* > 100 µM

*Q* Item under review: O=S1(=O)c2ccccc2NC(c2ccc3ccccc3c2)CC1c1ccccc1F (stereo not drawn) . Reported TGI?
*A* > 100 µM

* * *

tested on: CAKI-1 renal; experiment: NCI tumour cell line growth inhibition, 48 h
Items are presented alongside their recorded TGI.
Respond numerically; units are µM and should not be typed.

[[record]]
smiles_text = "Cn1c2ccccc2c2c(Nc3ccccc3)c3ccccc3nc21"
recorded_result = 38.7

[[record]]
smiles_text = "COc1cc(/C=N/NC(=O)c2ccc(C(F)(F)F)nc2Nc2ccc(Cl)cc2C)ccc1O"
recorded_result = 10.8

[[record]]
smiles_text = "C(/c1ccco1)=c1/nc(-c2ccccc2)n2c1nc1ccccc12"
recorded_result = 72.2


Let us move to another entry and its TGI.
*Q* Suppose we examine the compound `C=C1c2nc3ccccc3n2C=C(c2ccccc2)N1c1ccc([N+](=O)[O-])cc1` ; what TGI value has been reported?
*A* 24

* * *

system: CAKI-1 renal; assay: NCI tumour cell line growth inhibition, 48 h
The following compounds are listed with their measured TGI values.

[[record]]
compound = "COc1ccc(C(=O)Cn2c(C(=O)c3ccccc3)nc(-c3ccc(OC)cc3)c2-c2ccc(OC)cc2)cc1"
recorded_result = "> 100 µM"

[[record]]
compound = "COc1ccc(-c2nc3sccn3c2/C(N)=N/C(=N)N)cc1OC"
recorded_result = "> 100 µM"

[[record]]
compound = "O=C1C=C(Cl)C(=O)C(c2ccc(Cl)cc2)=C1"
recorded_result = "35.1 µM"

[[record]]
compound = "CC[C@@]1(O)C[C@H](OC2CC(N(C)C)C(O)C(C)O2)c2c(O)c3c(c(O)c2[C@H]1OC1CC(N(C)C)C(O)C(C)O1)C(=O)c1cccc(O)c1C3=O (stereo partly specified)"
recorded_result = "0.0545 µM"

[[record]]
compound = "CO[C@H](C(=O)[C@@H](O)[C@@H](C)O)[C@@H]1Cc2cc3cc(O[C@H]4C[C@@H](O[C@H]5C[C@@H](O)[C@H](O)C(C)O5)[C@H](O)C(C)O4)c(C)c(O)c3c(O)c2C(=O)[C@H]1O[C@H]1C[C@@H](O[C@H]2C[C@@H](O[C@H]3C[C@](C)(O)C(=O)C(C)O3)[C@@H](O)C(C)O2)[C@H](O)C(C)O1 (stereo partly specified)"
recorded_result = "> 33.2 µM"

[[record]]
compound = "CC(N)Cc1ccc(C(=O)Cl)cc1 (stereo unspecified)"
recorded_result = "> 100 µM"


*Q* GET /values?readout=TGI&item= `Cc1cccc(/C=N/NC(=S)Nc2ccccc2)n1`
*A* > 42.3 µM

*Q* Reported TGI for `CC(=O)Nc1ccc(-c2nnc(SCC(=O)Nc3ccc([N+](=O)[O-])cc3)o2)cc1` : what is it?
*A* 27.5 µM

*Q* Using the record for `O=C(Cc1cccs1)N[C@@H]1C(=O)N2C(C(=O)OC(c3ccccc3)c3ccccc3)=C(CO)CS[C@H]12` , report its TGI.
*A* > 100 µM

*Q* I have this compound here, `CC1=C(C(=O)NCc2ccccc2)C(/C=C/c2ccccc2)C(C(=O)NCc2ccccc2)=C(C)N1` , and I need its recorded TGI.
*A* > 100 µM

*Q* Consider the compound `CCOC(=O)Nn1c(C)nnc1-c1ccccc1` and give its measured TGI.
*A* > 100 µM

*Q* Fill in the blank: the reported TGI of `COC(=O)c1cc2c(n1S(=O)(=O)c1ccc(C)cc1)C(=O)C(=O)c1[nH]cc(C(=O)OCc3ccccc3)c1-2` is ____.
*A* 1.28 µM
